molecular target: DCAF1 WD40 domain (residues 1077-1390) (Homo sapiens); construct: DCAF1 WD40 domain (residues 1077-1390); experiment: DCAF1 binding assay by SPR (Biacore 8K+), DCAF1-3 KD; details: 25 °C, read-out: DCAF1-3 SPR (KD)
Sequence (Q9Y4B6 1077-1390): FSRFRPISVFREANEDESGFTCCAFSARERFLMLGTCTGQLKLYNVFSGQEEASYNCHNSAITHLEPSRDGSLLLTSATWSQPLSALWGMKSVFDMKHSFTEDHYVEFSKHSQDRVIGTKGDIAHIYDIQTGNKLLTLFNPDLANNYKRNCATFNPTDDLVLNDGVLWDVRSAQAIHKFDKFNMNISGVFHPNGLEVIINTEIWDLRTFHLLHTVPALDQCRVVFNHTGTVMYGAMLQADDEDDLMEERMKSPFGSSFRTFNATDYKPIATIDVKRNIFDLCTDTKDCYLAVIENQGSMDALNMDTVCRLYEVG
pKd: −log10 of the molar value.
endpoint label: pKd

Worked examples follow.
[[record]]
compound = "CNC1CN(C(=O)C[C@H](NC(=O)c2cn[nH]c2-c2c(F)ccc(F)c2C)c2cccc(Cl)c2)C1 [I-880]"
assayed_system = "DCAF1 WD40 domain (residues 1077-1390) (Homo sapiens)"
test_result = "> 5.00"

[[record]]
compound = "OC[C@H]1CC[C@H](Nc2cc(N3CCCCC3)ccn2)CC1 [I-847]"
assayed_system = "DCAF1 WD40 domain (residues 1077-1390) (Homo sapiens)"
test_result = "< 3.70"

[[record]]
compound = "NC(=O)C[C@H](NC(=O)c1ccc(-c2nc(C3CC3)n[nH]2)cc1)c1cccc(Cl)c1 [I-439]"
assayed_system = "DCAF1 WD40 domain (residues 1077-1390) (Homo sapiens)"
test_result = "< 3.70"


Query string: Return reported pKd; argument: NC(=O)C[C@H](NC(=O)c1c[nH]c(C(N)=O)c1-c1ccccc1F)c1cccc(Cl)c1 [I-599]
Result string: > 5.00

* * *

Catalogue of Kd readings, one per entry.
target: DCAF1 WD40 domain (residues 1077-1390) (Homo sapiens); construct: DCAF1 WD40 domain (residues 1077-1390); experiment: DCAF1 binding assay by SPR (Biacore 8K+), DCAF1-3 KD; conditions: 25 °C, read-out: DCAF1-3 SPR (KD)

Worked examples follow.
[[record]]
molecule = "c1cncc(-c2csc(N3CCC[C@@H](Nc4cc(N5CCOCC5)ccn4)C3)n2)c1 [I-412]"
assayed_system = "DCAF1 WD40 domain (residues 1077-1390) (Homo sapiens)"
endpoint_label = "Kd"
test_result = "> 200 µM"

[[record]]
molecule = "Cc1ccccc1N1CCC[C@@H](Nc2cc(N3CCOCC3)ncn2)C1 [I-4]"
assayed_system = "DCAF1 WD40 domain (residues 1077-1390) (Homo sapiens)"
endpoint_label = "Kd"
test_result = "> 200 µM"


Query string: Return reported Kd; argument: Cc1c(F)ccc(F)c1-c1[nH]ncc1C(=O)N[C@H](c1cccc(Cl)c1)[C@@H]1CCOC1 [I-967]
Result string: 10 to 100 µM

Query string: Return reported Kd; argument: NC(=O)C[C@H](NC(=O)c1ccc(C#Cc2ccccc2)cc1)c1cccc(Cl)c1 [I-438]
Result string: > 200 µM

Query string: Return reported Kd; argument: NC(=O)[C@@H]1C[C@H](Nc2cc(N3CCCCC3)ccn2)CN(c2cccc(F)c2)C1 [I-1031]
Result string: 10 to 100 µM

Query string: Return reported Kd; argument: Oc1cnc(N2CCOCC2)cc1N[C@@H]1CCCN(c2cccc(F)c2)C1 [I-382]
Result string: > 200 µM

Query string: Return reported Kd; argument: NCCOCCOCCOCCOCCOCCOCC(=O)c1[nH]cc(C(=O)N[C@@H](CC(N)=O)c2cccc(Cl)c2)c1-c1ccccc1F [I-676]
Result string: < 10 µM

Query string: Return reported Kd; argument: CN(c1cccc(F)c1)[C@@H]1CCN(c2cc(N3CCCCC3)ccn2)C1 [I-673]
Result string: < 10 µM
